target: α7* nicotinic receptor (Rattus norvegicus); construct: Whole rat brain (minus cortex, striatum and cerebellum) was homogenized; from tissue; host or cells: rat whole brain membranes (minus cortex, striatum and cerebellum); assay: [3H]Methyllycaconitine ([3H]MLA) binding assay; conditions: Table 1; rat whole brain membranes; read-out: [3H]MLA Binding (Ki) α7*
Sequence (Q05941 23-502): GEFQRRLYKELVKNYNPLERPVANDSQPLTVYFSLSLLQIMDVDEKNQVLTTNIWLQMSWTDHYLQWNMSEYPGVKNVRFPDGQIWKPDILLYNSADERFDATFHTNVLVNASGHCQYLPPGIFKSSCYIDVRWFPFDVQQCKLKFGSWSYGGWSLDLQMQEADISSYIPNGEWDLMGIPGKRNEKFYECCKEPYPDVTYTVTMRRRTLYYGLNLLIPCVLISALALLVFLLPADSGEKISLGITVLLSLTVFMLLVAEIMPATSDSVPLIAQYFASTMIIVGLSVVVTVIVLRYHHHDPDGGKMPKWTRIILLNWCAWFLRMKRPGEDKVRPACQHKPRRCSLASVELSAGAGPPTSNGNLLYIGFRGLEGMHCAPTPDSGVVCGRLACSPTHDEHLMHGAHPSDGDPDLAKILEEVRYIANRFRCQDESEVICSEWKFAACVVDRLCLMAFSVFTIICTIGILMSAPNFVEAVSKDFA
reported_endpoint: Ki

Lab entry: α7* nicotinic receptor (Rattus norvegicus) assay, compound CN1[C@@H](CCc2ccccc2)CCC[C@H]1CCc1ccccc1 , Ki = 43.1 µM

Lab entry: α7* nicotinic receptor (Rattus norvegicus) assay, compound COc1ccc(CC[C@H]2CCC[C@@H](CCc3ccc(OC)cc3)N2C)cc1 , Ki = > 100 µM

Lab entry: α7* nicotinic receptor (Rattus norvegicus) assay, compound FC(F)(F)c1cccc(CC[C@H]2CCC[C@@H](CCc3cccc(C(F)(F)F)c3)N2)c1 , Ki = > 100 µM

----------
Could you please report measured IC50 for the items listed next?
molecular target: serotonin transporter (SERT) (Rattus norvegicus, UniProt P31652); construct: Rat hippocampus was homogenized in 20 mL cold 0.32 M sucrose; assay: [3H]5-HT uptake assay, hippocampal synaptosomes; conditions: Table 4; earlier studies
Sequence (P31652 whole entry): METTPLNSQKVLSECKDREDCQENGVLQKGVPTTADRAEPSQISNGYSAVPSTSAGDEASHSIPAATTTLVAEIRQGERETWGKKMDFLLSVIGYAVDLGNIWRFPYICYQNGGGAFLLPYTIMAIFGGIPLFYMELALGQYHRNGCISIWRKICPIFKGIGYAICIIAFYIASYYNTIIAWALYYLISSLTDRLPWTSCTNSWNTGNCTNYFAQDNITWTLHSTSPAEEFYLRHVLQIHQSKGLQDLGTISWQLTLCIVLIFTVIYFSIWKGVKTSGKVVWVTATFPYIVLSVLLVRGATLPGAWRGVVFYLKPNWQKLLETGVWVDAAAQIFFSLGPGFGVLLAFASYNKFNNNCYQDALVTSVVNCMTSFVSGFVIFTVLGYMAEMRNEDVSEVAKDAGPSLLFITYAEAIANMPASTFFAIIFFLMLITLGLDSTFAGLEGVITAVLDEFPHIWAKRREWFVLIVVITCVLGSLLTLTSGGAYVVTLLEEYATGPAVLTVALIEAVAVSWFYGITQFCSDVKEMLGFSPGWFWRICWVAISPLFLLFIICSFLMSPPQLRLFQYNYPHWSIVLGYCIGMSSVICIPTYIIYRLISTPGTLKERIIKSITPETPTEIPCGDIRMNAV
Report as a plain number; the unit µM is understood.

Reported IC50 of CN1[C@H](/C=C/c2ccccc2)CCC[C@H]1/C=C/c1ccccc1 [Compound 15] : 1.19

Reported IC50 of CN1[C@H](/C=C/c2ccccc2)CCC[C@@H]1/C=C/c1ccccc1 [Compound 14] : 23.2

----------
target: serotonin transporter (SERT) (Rattus norvegicus, UniProt P31652); construct: Rat hippocampus was homogenized in 20 mL cold 0.32 M sucrose; from tissue; host or cells: rat hippocampal synaptosomes; experiment: [3H]5-HT uptake assay, hippocampal synaptosomes; assay type: biochemical; conditions: inhibition of serotonin uptake Ki
pKi: −log10 of the molar value.
reported_endpoint: pKi

Reported pKi of CN1[C@@H](C[C@@H](O)c2ccccc2)CCC[C@H]1/C=C/c1ccccc1 [Compound 6] : 6.42 to 8.00

----------
Could you please report measured IC50 for the items listed next?
biological target: α4β2* nicotinic receptor (Rattus norvegicus, UniProt P09483+P12390); assay: Nicotine-evoked 86Rb+ efflux assay, thalamic synaptosomes; conditions: read-out: Inhibition of Nicotine-Evoked 86Rb+ Efflux (IC50) α4β2*
Sequence (P09483 31-630): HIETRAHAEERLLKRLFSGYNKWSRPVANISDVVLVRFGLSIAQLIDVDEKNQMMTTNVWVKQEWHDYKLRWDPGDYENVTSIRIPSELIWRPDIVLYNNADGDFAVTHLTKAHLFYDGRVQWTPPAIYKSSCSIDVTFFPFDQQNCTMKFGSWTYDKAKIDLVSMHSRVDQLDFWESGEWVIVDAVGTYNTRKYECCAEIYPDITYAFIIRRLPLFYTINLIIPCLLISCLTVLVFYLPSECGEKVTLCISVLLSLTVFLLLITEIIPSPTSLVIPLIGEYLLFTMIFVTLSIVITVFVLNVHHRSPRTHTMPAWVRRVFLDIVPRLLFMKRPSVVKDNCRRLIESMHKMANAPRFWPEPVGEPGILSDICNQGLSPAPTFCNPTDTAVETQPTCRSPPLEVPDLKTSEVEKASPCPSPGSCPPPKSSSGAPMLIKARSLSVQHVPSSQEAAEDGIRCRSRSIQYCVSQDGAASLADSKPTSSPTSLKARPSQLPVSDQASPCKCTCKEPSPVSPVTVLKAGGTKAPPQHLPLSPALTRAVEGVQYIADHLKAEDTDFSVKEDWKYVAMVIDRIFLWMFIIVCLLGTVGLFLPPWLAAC
Sequence (P12390 25-500): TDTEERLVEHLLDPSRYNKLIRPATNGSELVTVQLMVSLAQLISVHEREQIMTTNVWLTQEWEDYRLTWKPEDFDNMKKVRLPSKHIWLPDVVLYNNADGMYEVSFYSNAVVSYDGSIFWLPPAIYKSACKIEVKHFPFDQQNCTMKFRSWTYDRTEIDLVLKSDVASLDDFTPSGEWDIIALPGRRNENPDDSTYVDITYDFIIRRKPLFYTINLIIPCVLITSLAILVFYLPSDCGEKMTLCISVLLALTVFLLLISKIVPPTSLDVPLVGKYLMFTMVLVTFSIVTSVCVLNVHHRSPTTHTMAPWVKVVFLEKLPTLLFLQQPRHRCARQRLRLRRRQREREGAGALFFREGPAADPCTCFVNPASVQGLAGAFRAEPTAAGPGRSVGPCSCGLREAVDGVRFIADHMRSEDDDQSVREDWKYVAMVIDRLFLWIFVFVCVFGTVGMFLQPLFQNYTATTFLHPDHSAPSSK

Reported IC50 of Cc1ccc(S(=O)(=O)O[C@@H](C[C@H]2CCC[C@@H](CC(=O)c3ccccc3)N2C)c2ccccc2)cc1 [Compound 2] : 2 nM

Reported IC50 of CN1[C@H](/C=C/c2ccccc2)CCC[C@@H]1/C=C/c1ccccc1 [Compound 14] : > 10000 nM

Reported IC50 of CN1[C@@H](CC(=O)c2ccccc2)CCC[C@H]1/C=C/c1ccccc1 [Compound 5] : 300 nM

----------
target: dopamine transporter (DAT) (Rattus norvegicus); construct: Striata were homogenized in 20 ml of ice-cold sucrose solution; from tissue; host or cells: striatal synaptosomes; assay: [3H]Dopamine uptake assay, striatal synaptosomes; format: biochemical; settings: Table 3; earlier study; read-out: Ki [3H]-Dopamine Uptake Assay
Sequence (P23977 whole entry): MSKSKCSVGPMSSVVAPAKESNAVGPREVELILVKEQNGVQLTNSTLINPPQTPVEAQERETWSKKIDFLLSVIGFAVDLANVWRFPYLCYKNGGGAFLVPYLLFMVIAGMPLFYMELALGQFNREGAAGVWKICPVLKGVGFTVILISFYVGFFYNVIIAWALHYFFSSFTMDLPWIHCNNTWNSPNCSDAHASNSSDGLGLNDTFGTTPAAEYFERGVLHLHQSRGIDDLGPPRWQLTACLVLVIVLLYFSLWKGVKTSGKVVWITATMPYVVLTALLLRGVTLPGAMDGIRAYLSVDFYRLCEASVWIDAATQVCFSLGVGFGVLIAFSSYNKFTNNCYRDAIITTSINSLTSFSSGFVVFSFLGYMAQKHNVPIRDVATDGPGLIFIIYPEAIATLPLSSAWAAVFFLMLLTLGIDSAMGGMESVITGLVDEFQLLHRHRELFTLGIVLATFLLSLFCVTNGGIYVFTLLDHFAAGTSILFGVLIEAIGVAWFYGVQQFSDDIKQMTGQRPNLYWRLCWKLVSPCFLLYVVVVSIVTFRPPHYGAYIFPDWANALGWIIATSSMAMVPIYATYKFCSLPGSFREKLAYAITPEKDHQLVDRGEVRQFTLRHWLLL
Could you please report measured Ki for the items listed next?
Report as a plain number; the unit µM is understood.

Reported Ki of Cc1ccc(S(=O)(=O)O[C@@H](C[C@H]2CCC[C@@H](CC(=O)c3ccccc3)N2C)c2ccccc2)cc1 : 39

Reported Ki of CN1[C@@H](CC(=O)c2ccccc2)CCC[C@H]1CC(=O)c1ccccc1 : 25

Reported Ki of CN1[C@@H](CC(=O)c2ccccc2)CCC[C@H]1/C=C/c1ccccc1 : 3

Reported Ki of CN1[C@@H](C[C@@H](O)c2ccccc2)CCC[C@H]1C[C@H](O)c1ccccc1 : 54

Reported Ki of CN1[C@@H](C[C@H](O)c2ccccc2)CCC[C@H]1/C=C/c1ccccc1 (relative stereo) : 1.3

Reported Ki of CN1C(CC(=O)c2ccccc2)CCCC1CC(O)c1ccccc1 (stereo not shown) [Compound 1, reference compound] : 45

Reported Ki of CN1[C@H](/C=C/c2ccccc2)CCC[C@@H]1/C=C/c1ccccc1 : 0.8
